assay-target: Aminopeptidase N (Plasmodium falciparum FcB1/Columbia)
Sequence (O96935 whole entry): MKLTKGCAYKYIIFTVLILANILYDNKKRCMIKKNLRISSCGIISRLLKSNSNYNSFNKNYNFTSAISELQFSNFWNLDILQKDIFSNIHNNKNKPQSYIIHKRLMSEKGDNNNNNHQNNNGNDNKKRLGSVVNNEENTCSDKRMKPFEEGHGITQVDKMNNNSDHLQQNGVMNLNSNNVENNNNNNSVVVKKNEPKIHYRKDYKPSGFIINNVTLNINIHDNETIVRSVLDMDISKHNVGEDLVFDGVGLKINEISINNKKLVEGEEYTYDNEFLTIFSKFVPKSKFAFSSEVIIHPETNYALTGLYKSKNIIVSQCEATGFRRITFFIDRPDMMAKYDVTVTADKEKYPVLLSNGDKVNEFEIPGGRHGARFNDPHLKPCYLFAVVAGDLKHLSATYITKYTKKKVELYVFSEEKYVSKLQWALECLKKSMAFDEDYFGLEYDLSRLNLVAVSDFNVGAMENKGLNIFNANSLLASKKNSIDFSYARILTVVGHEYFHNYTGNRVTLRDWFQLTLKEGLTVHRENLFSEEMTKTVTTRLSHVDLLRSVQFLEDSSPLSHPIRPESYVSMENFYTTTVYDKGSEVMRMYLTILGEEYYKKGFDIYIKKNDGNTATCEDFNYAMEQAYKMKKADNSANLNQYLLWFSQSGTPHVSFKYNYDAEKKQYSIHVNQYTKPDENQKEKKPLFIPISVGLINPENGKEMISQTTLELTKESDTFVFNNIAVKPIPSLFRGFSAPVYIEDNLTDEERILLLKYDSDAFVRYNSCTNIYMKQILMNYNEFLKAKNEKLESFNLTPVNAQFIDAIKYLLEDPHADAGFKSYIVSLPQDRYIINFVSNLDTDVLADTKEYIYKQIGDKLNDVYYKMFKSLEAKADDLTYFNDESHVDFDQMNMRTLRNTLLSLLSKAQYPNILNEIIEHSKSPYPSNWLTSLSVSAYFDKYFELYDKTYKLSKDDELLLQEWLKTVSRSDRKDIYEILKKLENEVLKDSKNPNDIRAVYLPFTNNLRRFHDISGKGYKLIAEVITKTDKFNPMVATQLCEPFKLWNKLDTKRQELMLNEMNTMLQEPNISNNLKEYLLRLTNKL
run-description: P. falciparum M1AAP inhibitors, biochemical, fluorogenic H-Leu-NHMec substrate, 1536-well (AID 1445)
Design: species or system Plasmodium falciparum 3D7, 3D7
The source made the active and inactive calls.
Would you mind telling me the reported IC50 of each entry?

stdin: // IC50 lookup, key: `O=C(NCc1ccccc1)C1CCN(S(=O)(=O)c2cccc3cccnc23)CC1`
stdout: 42.1 µM (active)

stdin: Fill in: IC50 of CC(CCc1ccccc1)NC(=O)C(Cc1ccccc1)NS(=O)(=O)c1cccs1 (centres undefined) is ___
stdout: 71.4 µM (active)

stdin: Entry `Cc1csc(NC(=O)CCCC(=O)O)c1-c1nc2ccccc2s1` has what IC50?
stdout: 11.2 µM (active)

stdin: Give the measured IC50 of `O=C(CCCN1C(=O)/C(=C/c2ccco2)SC1=S)Nc1ccccc1C(=O)O` .
stdout: 102 µM (active)

* * *

assay-target: Induced myeloid leukemia cell differentiation protein Mcl-1 (Homo sapiens)
Sequence (Q07820 whole entry): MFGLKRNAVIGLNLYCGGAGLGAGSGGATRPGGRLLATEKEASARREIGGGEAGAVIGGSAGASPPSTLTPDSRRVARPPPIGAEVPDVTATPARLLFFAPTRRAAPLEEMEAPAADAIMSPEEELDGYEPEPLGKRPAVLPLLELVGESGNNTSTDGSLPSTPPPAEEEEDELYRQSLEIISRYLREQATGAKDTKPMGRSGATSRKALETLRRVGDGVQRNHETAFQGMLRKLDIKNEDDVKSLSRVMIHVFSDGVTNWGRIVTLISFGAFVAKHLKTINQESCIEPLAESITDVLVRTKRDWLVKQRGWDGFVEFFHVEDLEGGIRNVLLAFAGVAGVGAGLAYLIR
Assay type: functional
Calls of active or inactive are those of the source.
endpoint-label: IC50

stdin: Would you mind telling me what IC50 value was observed for `COc1cc(/C=N/NC(=O)c2cc(-c3ccco3)nc3ccccc23)cc(OC)c1O` ?
stdout: 8.35 µM (active)

stdin: Name the reported IC50 value associated with the molecule `CN=c1ccc(Br)cc(C(=O)/C=C/c2ccc(Cl)cc2Cl)c1O`
stdout: 5.26 µM (active)

stdin: Record request: IC50 value, item `CCOc1ccc(/C=C/[N+](=O)[O-])c2ccccc12`
stdout: 2.18 µM (active)

stdin: // returns reported IC50 for input `CCNc1ccc(Br)cc(C(=O)/C=C/c2ccc3c(c2)OCO3)c1=O`
stdout: 2.58 µM (active)

stdin: Requested read-out: IC50. Entry: `O=c1oc2ccccc2c2oc3cc(O)c(O)cc3c12`
stdout: 6.69 µM (active)

stdin: Recorded IC50 for `Cc1ccc(-c2nc3c(c(=O)[nH]c(=O)n3Cc3ccccc3)n2C)o1` , please?
stdout: 4.71 µM (active)

stdin: Consider the molecule shown here: `Brc1ccc(C2Nc3cccc4cccc(c34)N2)s1` What is its recorded IC50?
stdout: 9.46 µM (active)

* * *

Tested on: Streptococcus
run-description: Group A Streptococcus viability loss, dose response, counter-screen for streptokinase expression inhibitor project, luminescence, BacTiterGlo (AID 1915);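 further: potency for reduction of bacterial viability or growth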
Assay type: functional, organism-based
Active and inactive are the calls of the source.
endpoint-label: EC50

stdin: Item under review: `O=C(c1cc2ccccc2cc1O)N1CCN(c2ccccc2O)CC1` . Reported EC50?
stdout: 110 µM (active)

stdin: Which measured EC50 value corresponds to `Cc1ccc2nc(N/C(N)=N/C(=O)NC3CCCCC3)nc(C)c2c1` ?
stdout: > 150 µM (not active)

stdin: Sample `Cc1ccc(C(=O)Nc2nc(-c3ccccc3)c(-c3ccccc3)o2)cc1` — what was its EC50?
stdout: 2.36 µM (active)

stdin: Suppose we examine the molecule `Cn1c(O)c(N=Nc2nc(-c3ccccc3)cs2)c2ccccc21` ; what EC50 value has been reported?
stdout: > 150 µM (not active)

stdin: Reported EC50 for `O=C(COc1ccccc1)Nc1nnc(-c2ccccc2Cl)o1` : what is it?
stdout: > 150 µM (not active)

stdin: Find the recorded EC50 belonging to `CCCCN(CCCC)c1cc(C)nc(-c2ccccc2O)n1` and report it.
stdout: > 150 µM (not active)

stdin: Which value of EC50 has been reported for `O=C(Nc1nc2cc3c(cc2s1)OCCO3)c1ccc([N+](=O)[O-])o1` in the records?
stdout: > 150 µM (not active)

stdin: I'd like to know its EC50. The molecule in question is `COc1ccc(-c2cc(C3CCN(c4ccc(C(C)=O)cc4[N+](=O)[O-])CC3)[nH]n2)cc1`
stdout: 24.3 µM (active)

stdin: # get_value(readout='EC50', item= `O=c1c2c(n3nnnc3n1Cc1ccccc1)-c1ccccc1CC21CCCC1` )
stdout: > 150 µM (not active)

stdin: May I ask what EC50 has been recorded for `CCOC(=O)c1ccc(NC2=CC(=O)C(=O)c3ccccc32)cc1` ?
stdout: 9.24 µM (active)

stdin: Return reported EC50; argument: Oc1c(Cl)cc(Cl)cc1/C=N/NC(=S)NC1CC2C=CC1C2 (stereo not drawn)
stdout: 1.3 µM (active)

stdin: Consider the molecule shown here: CC1(C)S[C@@H]2[C@H](NC(=O)C(NC(=O)N3CCNC3=O)c3ccccc3)C(=O)N2[C@H]1C(=O)O (stereo partly drawn) What is its recorded EC50?
stdout: < 0.06 µM (active)

stdin: Name the reported EC50 value associated with the molecule `CCOc1ccc(-c2nnc(NC(=O)c3ccc(OCC(C)C)c(OC)c3)o2)cc1`
stdout: 1.76 µM (active)
